Counter-ions that a name gives are not always drawn.

compound | melting point (°C)
CN1CCC(OC(c2cccc(OCc3ccccn3)c2)c2nc3ccccc3[nH]2)CC1 (stereo not shown) | 77
CC(=O)c1cccc(C(NC2CCN(C)CC2)c2nc3ccccc3[nH]2)c1 (stereo not shown) | 198
CN1CCC(OC(c2cccc(OCCF)c2)c2nc3ccccc3s2)CC1 (stereo not shown) (as salt: oxalate) | 147
CN1CCC(OC(c2cccc(OC3CCNC3)c2)c2nc3ccccc3s2)CC1 (stereo not shown) (as salt: oxalate) | 50
CCOC(=O)NCCCC#Cc1ccc(F)c(C(OC2CCN(C)CC2)c2nc3cc(F)ccc3[nH]2)c1 (stereo not shown) | 95
CN1CCC(OC(c2cccc(OCCCF)c2)c2nc3ccccc3s2)CC1 (stereo not shown) (as salt: oxalate) | 72
C=CCCCOc1cccc(C(OC2CCN(C)CC2)c2nc3ccccc3s2)c1 (stereo not shown) (as salt: oxalate) | 75
Cc1ccc(C(OC2CCN(C)CC2)c2nc3ccccc3[nH]2)c(Cl)c1 (stereo not shown) (as salt: oxalate) | 96
CN1CCC(OC(c2cccc(OCc3ccco3)c2)c2nc3ccccc3s2)CC1 (stereo not shown) (as salt: oxalate) | 85
C=CCOc1cccc(C(NC2CCN(C)CC2)c2nc3ccccc3[nH]2)c1 (stereo not shown) (as salt: oxalate) | 125
CN1CCC(OC(c2cccc(CCCCNC(=N)N)c2)c2nc3ccccc3s2)CC1 (stereo not shown) (as salt: hydrochloride) | 120
CN1CCC(OC(c2nc3ccccc3[nH]2)c2cc(OCC(F)(F)F)ccc2F)CC1 (stereo not shown) | 204
CN1CCC(OC(c2cccc(OCCF)c2)c2nc3ccccc3[nH]2)CC1 (stereo not shown) (as salt: oxalate) | 136
CN1CCC(OC(c2nc3ccccc3[nH]2)c2cc(OC(F)(F)F)ccc2O)CC1 (stereo not shown) | 132
CCOC(=O)NCCCC#Cc1ccc(F)c(C(OC2CCN(C)CC2)c2nc3ccccc3[nH]2)c1 (stereo not shown) | 87
CN1CCC(OC(c2nc3ccccc3[nH]2)c2cccc(-c3ccccc3)c2O)CC1 (stereo not shown) | 129

---

measured_on: human H4 receptor (Homo sapiens, UniProt Q9H3N8)
Construct: expressed in transfected cells
Sequence (Q9H3N8 whole entry): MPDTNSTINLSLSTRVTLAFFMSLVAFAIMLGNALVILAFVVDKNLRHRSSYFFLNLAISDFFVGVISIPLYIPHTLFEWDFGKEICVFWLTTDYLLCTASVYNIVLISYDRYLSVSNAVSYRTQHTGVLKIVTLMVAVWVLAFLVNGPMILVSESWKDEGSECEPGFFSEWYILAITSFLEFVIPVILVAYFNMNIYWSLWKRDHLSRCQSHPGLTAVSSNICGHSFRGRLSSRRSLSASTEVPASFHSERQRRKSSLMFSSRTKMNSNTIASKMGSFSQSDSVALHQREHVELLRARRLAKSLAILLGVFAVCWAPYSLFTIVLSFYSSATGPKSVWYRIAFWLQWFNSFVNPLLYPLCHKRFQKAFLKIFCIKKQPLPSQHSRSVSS
procedure_text: [3H]Histamine binding on membranes of CHO cells stably expressing human H4 receptor
Recorded Ki or IC50 activity class, one value per entry.

compound | Ki or IC50 activity class
CN1CCC(NC(c2cccc(-c3ccco3)c2)c2nc3ccccc3[nH]2)CC1 (centres unmarked) [Example 144] | < 30 nM
CCCOc1ccc(F)c(C(OC2CCN(C)CC2)c2nc3ccccc3[nH]2)c1 (centres unmarked) [Example 519] | < 30 nM
CN1CCC(OC(c2nc3c(F)c(F)c(F)cc3[nH]2)c2cc(OC(F)(F)F)ccc2F)CC1 (centres unmarked) [Example 510] | < 300 nM
CCSc1cccc(C(OC2CCN(C)CC2)c2nc3ccccc3s2)c1 (centres unmarked) [Example 159] | < 30 nM
CSc1cccc(C(NC2CCN(C)CC2)c2nc3ccccc3s2)c1 (centres unmarked) [Example 111] | < 30 nM
CN1CCC(OC(c2nc3ccccc3[nH]2)c2cc(OCCF)ccc2O)CC1 (centres unmarked) [Example 605] | < 30 nM
CN1CCC(NC(c2cccc([N+](=O)[O-])c2)c2nc3ccccc3[nH]2)CC1 (centres unmarked) [Example 131] | < 300 nM
CN1CCC(OC(c2cccc(O)c2)c2nc3ccccc3s2)CC1 (centres unmarked) [Example 62] | < 30 nM
CN1CCC(OC(c2cccc(SCCCCO)c2)c2nc3cc(F)ccc3[nH]2)CC1 (centres unmarked) [Example 427] | < 300 nM
CN1CCC(OC(c2nc3ccccc3[nH]2)c2cc(OC(F)(F)F)ccc2F)CC1 (centres unmarked) [Example 433] | < 30 nM
CN1CCC(OC(c2ccc3c(c2)OCCC3)c2nc3ccccc3[nH]2)CC1 (centres unmarked) [Example 543] | < 30 nM
CN1CCC(OC(c2cccc(C#CCNC(=N)NC(=O)OC(C)(C)C)c2)c2nc3ccccc3[nH]2)CC1 (centres unmarked) [Example 336] | < 300 nM
CN1CCC(OC(c2nc3ccccc3[nH]2)c2cc(Br)ccc2O)CC1 (centres unmarked) [Example 575] | < 30 nM
CN1CCC(OC(c2cccc(SCCCCCN)c2)c2nc3ccccc3[nH]2)CC1 (centres unmarked) [Example 381] | < 30 nM
CCOC(=O)NCCCC#Cc1ccc(F)c(C(OC2CCN(C)CC2)c2nc3cc(F)ccc3[nH]2)c1 (centres unmarked) [Example 570] | < 300 nM
CN1CCC(OC(c2cccc(-c3ccc(C(F)(F)F)cc3)c2)c2nc3ccccc3[nH]2)CC1 (centres unmarked) [Example 119] | < 300 nM
CN1CCC(OC(c2cccc(OCCNCC(=O)OC(C)(C)C)c2)c2nc3ccccc3s2)CC1 (centres unmarked) [Example 370] | < 1000 nM
CN1CCC(OC(c2nc3ccccc3[nH]2)c2ccccc2Br)CC1 (centres unmarked) [Example 262] | < 300 nM
CN1CCC(OC(c2cccc(C#CCCN)c2)c2nc3ccccc3[nH]2)CC1 (centres unmarked) [Example 286] | < 300 nM
CN1CCC(OC(c2cccc(OCCCn3cncn3)c2)c2nc3ccccc3s2)CC1 (centres unmarked) [Example 348] | < 1000 nM
CSc1cccc(C(OC2CCN(C)CC2)c2nc3ccccc3[nH]2)c1 (centres unmarked) [Example 202] | < 30 nM
Cc1ccc(C(OC2CCN(C)CC2)c2nc3ccccc3[nH]2)c(O)c1F (centres unmarked) [Example 601] | < 30 nM
COc1ccc(F)c(C(OC2CCN(C)CC2)c2nc3ccccc3[nH]2)c1 (centres unmarked) [Example 486] | < 30 nM
COc1ccc(-c2cccc(C(NC3CCN(C)CC3)c3nc4ccccc4s3)c2)cc1 (centres unmarked) [Example 211] | < 300 nM
CN1CCC(COC(c2cccc(Br)c2)c2nc3ccccc3[nH]2)C1 (centres unmarked) [Example 414] | < 300 nM
CN1CCC(OC(c2nc3ccccc3[nH]2)c2cc(OC(F)(F)F)ccc2Cl)CC1 (centres unmarked) [Example 524] | < 300 nM
CN1CCC(OC(c2cccc(OCCCN3CCOCC3)c2)c2nc3ccccc3s2)CC1 (centres unmarked) [Example 350] | < 1000 nM
CN1CCC(OC(c2cccc(OCCN3CCN(C(=O)OC(C)(C)C)CC3)c2)c2nc3ccccc3s2)CC1 (centres unmarked) [Example 328] | < 30 nM
CN1CCC(OC(c2ccccc2)c2nc3ccccc3s2)CC1 (centres unmarked) [Example 1] | < 300 nM
CN1CCC(OC(c2nc3ccccc3o2)c2cc(OC(F)(F)F)ccc2F)CC1 (centres unmarked) [Example 525] | < 300 nM
CN1CCC(OC(c2nc3ccccc3[nH]2)c2cccs2)CC1 (centres unmarked) [Example 546] | < 300 nM
CN1CCC(OC(c2cccc(NCc3ccccc3)c2)c2nc3ccccc3s2)CC1 (centres unmarked) [Example 234] | < 300 nM
CN1CCC(OC(c2cccc(SCCNC3=NCCS3)c2)c2nc3ccccc3[nH]2)CC1 (centres unmarked) [Example 299] | < 1000 nM
Cc1ccc(C(OC2CCN(C)CC2)c2nc3ccccc3o2)c(F)c1 (centres unmarked) [Example 545] | < 300 nM
CN1CCC(OC(c2ccccc2)c2nc3cc(Cl)c(Cl)cc3[nH]2)CC1 (centres unmarked) [Example 165] | < 300 nM
